- Tested on: EBC-1 (lung, squamous cell carcinoma) cells
- protocol: Cell viability assay, CellTiter-Glo (Example 21)
- Type: cell-based, human
- recordedConditions: 100 nM, 72 h treatment
quantityName: EBC-1 (lung, squamous cell carcinoma) cell viability (% of control)

Fill in: EBC-1 (lung, squamous cell carcinoma) cell viability (% of control) of O=C1C2=C(CCN(Cc3cccc(F)c3)C2)N2CCN=C2N1Cc1ccc(F)cc1 [I/6, reference compound] is ___ 25.1 ± 0.3 % of control

Any idea what its EBC-1 (lung, squamous cell carcinoma) cell viability (% of control) is? The compound is [N-]=[N+]=Nc1cccc(CN2CCC3=C(C2)C(=O)N(Cc2ccc(Cl)cc2)C2=NCCN23)c1 [I/133] 23.2 ± 0.7 % of control

// lookup EBC-1 (lung, squamous cell carcinoma) cell viability (% of control) for O=C1C2=C(CCN(Cc3cc(F)cc(F)c3)C2)N2CCN=C2N1Cc1ccc(F)cc1 [I/7] 23.2 ± 0.9 % of control

Return reported EBC-1 (lung, squamous cell carcinoma) cell viability (% of control); argument: O=C1C2=C(CCN(Cc3ccccc3)C2)N2CCN=C2N1Cc1ccc(C(F)(F)F)cc1 [I/1, reference compound] 43.4 ± 6.8 % of control

Consider the compound shown here: [N-]=[N+]=Nc1cccc(CN2CCC3=C(C2)C(=O)N(Cc2ccc(C(F)(F)F)cc2)C2=NCCN23)c1 [I/111] What is its recorded EBC-1 (lung, squamous cell carcinoma) cell viability (% of control)? 20.6 ± 0.6 % of control

Give the measured EBC-1 (lung, squamous cell carcinoma) cell viability (% of control) of [N-]=[N+]=Nc1ccc(CN2C(=O)C3=C(CCN(Cc4cc(F)cc(F)c4)C3)N3CCN=C23)cc1 [I/107] . 23.5 ± 1.0 % of control

Query: EBC-1 (lung, squamous cell carcinoma) cell viability (% of control); subject: O=C1C2=C(CCN(Cc3cc(F)cc(F)c3)C2)N2CCN=C2N1Cc1ccc(Cl)cc1 [I/124] 22.4 ± 0.5 % of control

Recorded EBC-1 (lung, squamous cell carcinoma) cell viability (% of control) for O=C1C2=C(CCN(Cc3cc(F)cc(F)c3)C2)N2CCN=C2N1Cc1ccc(C(F)(F)F)cc1 [I/30] , please? 21.3 ± 0.6 % of control

Recorded EBC-1 (lung, squamous cell carcinoma) cell viability (% of control) of O=C1C2=C(CCN(Cc3cccc(F)c3)C2)N2CCN=C2N1Cc1ccc(C(F)(F)F)cc1 [I/3, reference compound] , please. 25.1 ± 0.2 % of control

---

For each of the compounds below, state its Capan-1 (pancreas, adenocarcinoma) cell viability (% of control).
- Test system: Capan-1 (pancreas, adenocarcinoma) cells
- protocol: Cell viability assay, CellTiter-Glo (Example 21)
- Format: cell-based, human
- recordedConditions: 11.1 nM, 72 h treatment

Which Capan-1 (pancreas, adenocarcinoma) cell viability (% of control) is reported for this compound? O=C1C2=C(CCN(Cc3cccc(F)c3)C2)N2CCN=C2N1Cc1ccc(F)cc1 [I/6, reference compound] 106.0 ± 8.0 % of control

Entry under review: [N-]=[N+]=Nc1cccc(CN2CCC3=C(C2)C(=O)N(Cc2ccc(C(F)(F)F)cc2)C2=NCCN23)c1 . Reported Capan-1 (pancreas, adenocarcinoma) cell viability (% of control)? 95.1 ± 8.2 % of control

Look at this compound and give its reported Capan-1 (pancreas, adenocarcinoma) cell viability (% of control). O=C1C2=C(CCN(Cc3cc(F)cc(F)c3)C2)N2CCN=C2N1Cc1ccc(Cl)cc1 35.3 ± 3.1 % of control

Which Capan-1 (pancreas, adenocarcinoma) cell viability (% of control) reading was recorded for the compound [N-]=[N+]=Nc1ccc(CN2C(=O)C3=C(CCN(Cc4cc(F)cc(F)c4)C3)N3CCN=C23)cc1 ? 101.2 ± 5.2 % of control

What value of Capan-1 (pancreas, adenocarcinoma) cell viability (% of control) has been recorded for this entry: O=C1C2=C(CCN(Cc3cccc(F)c3)C2)N2CCN=C2N1Cc1ccc(C(F)(F)F)cc1 [I/3, reference compound] 101.5 ± 5.5 % of control

I am curious: what Capan-1 (pancreas, adenocarcinoma) cell viability (% of control) value has been reported for [N-]=[N+]=Nc1cccc(CN2CCC3=C(C2)C(=O)N(Cc2ccc(Cl)cc2)C2=NCCN23)c1 ? 98.8 ± 7.9 % of control

Which Capan-1 (pancreas, adenocarcinoma) cell viability (% of control) value belongs to O=C1C2=C(CCN(Cc3cc(F)cc(F)c3)C2)N2CCN=C2N1Cc1ccc(C(F)(F)F)cc1 ? 38.4 ± 4.5 % of control

Using the record for O=C1C2=C(CCN(Cc3cc(F)cc(F)c3)C2)N2CCN=C2N1Cc1ccc(F)cc1 , report its Capan-1 (pancreas, adenocarcinoma) cell viability (% of control). 46.0 ± 7.5 % of control

Please look up its Capan-1 (pancreas, adenocarcinoma) cell viability (% of control): O=C1C2=C(CCN(Cc3ccccc3)C2)N2CCN=C2N1Cc1ccc(C(F)(F)F)cc1 [I/1, reference compound] 99.2 ± 3.8 % of control
